Origin of the recorded values: patent US11976057B2

- EXPERIMENTAL SYSTEM: human MRGPRX2 (Homo sapiens)
- Sequence (Q96LB1 whole entry): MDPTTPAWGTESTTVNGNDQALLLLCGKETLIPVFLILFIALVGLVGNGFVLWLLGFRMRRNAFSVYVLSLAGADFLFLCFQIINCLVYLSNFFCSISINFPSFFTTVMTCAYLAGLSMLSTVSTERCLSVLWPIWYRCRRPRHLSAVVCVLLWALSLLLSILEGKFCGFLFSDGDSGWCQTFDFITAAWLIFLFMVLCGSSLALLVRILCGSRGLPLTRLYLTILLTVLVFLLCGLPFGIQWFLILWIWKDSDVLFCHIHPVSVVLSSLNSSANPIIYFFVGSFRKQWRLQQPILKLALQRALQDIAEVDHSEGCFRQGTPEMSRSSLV
- PROTOCOL DESCRIPTION: Ca2+ mobilization assay (FLIPR TETRA): inhibition of Cortistatin-14 mediated MRGPRX2 activation
pIC50: −log10 of the molar value. Structures can show the parent of a compound that is named as a salt.
// reported pIC50 for each item listed

Consider the worked cases shown below.
[
  {
    "COMPOUND": "CC(C(=O)Nc1cnc(Oc2ccc(F)cc2CO)cn1)N1CCC(F)(F)[C@@H](c2cc[n+]([O-])cc2)C1 (some centres unmarked) [Example 274]",
    "RESULT": "5.50 to 7.00"
  },
  {
    "COMPOUND": "C[C@@H](C(=O)Nc1cnc(Oc2ccc(F)cc2F)cn1)N1CCC(F)(F)[C@@H](c2cc[n+]([O-])cc2)C1 [Example 132]",
    "RESULT": "≥ 8.00"
  },
  {
    "COMPOUND": "CC(C(=O)Nc1ccc(Oc2ncc(F)cc2C#N)cn1)N1CCC(F)(F)[C@@H](c2ccc(=O)[nH]c2)C1 (some centres unmarked) [Example 92]",
    "RESULT": "7.00 to 8.00"
  },
  {
    "COMPOUND": "C[C@@H](C(=O)Nc1ccc(Oc2ccncn2)cn1)N1CCC(F)(F)[C@@H](c2ccc(=O)[nH]c2)C1 [Example 74]",
    "RESULT": "5.50 to 7.00"
  },
  {
    "COMPOUND": "C[C@@H](C(=O)Nc1cnc(C2CC2)cn1)N1CCC(F)(F)[C@@H](c2ccc(=O)[nH]c2)C1 [Example 70]",
    "RESULT": "5.50 to 7.00"
  }
]

INPUT: So what does the record say about pIC50 for CC(C(=O)Nc1ccc(Oc2ncc(F)cc2Cl)cn1)N1CCC(F)(F)[C@@H](c2ccc(=O)[nH]c2)C1 (some centres unmarked) [Example 90] ?
OUTPUT: ≥ 8.00

INPUT: So what does the record say about pIC50 for C[C@@H](C(=O)Nc1ccc(Oc2ccc(F)cc2)cn1)N1CCC(F)(F)[C@@H](c2c[nH]c(=O)c([C@@H](N)C(F)(F)F)c2)C1 (single isomer, unassigned) [Example 234] ?
OUTPUT: ≥ 8.00

INPUT: So what does the record say about pIC50 for CC(C(=O)Nc1ccc(Cc2ccccn2)cn1)N1CCC(F)(F)[C@@H](c2ccc(=O)[nH]c2)C1 (some centres unmarked) [Example 57, hydrochloride] ?
OUTPUT: 5.50 to 7.00
